Experiment: growth inhibitors of wild type E. coli, primary screen, strain BW25113 wild type, absorbance readout (AID 552);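 also: bacteria exposed to compound for 20 hours at 37 °C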
Details: OD600, at 10 µM, stronger effect = higher value
Out of some 20,000 compounds screened, about 10 (0.05%) were called active. This is one part of a sample in which actives are shown more often than they occur.
MEASUREMENT_TYPE: inhibition (%)

> print(dat)
                                    compound  reading
 1  CCOC(=O)Cc1csc(NC(=O)CN(C)S(=O)(=O)c2ccc3c(c2)CCC(=O)N3)n1     3.09
 2            O=C(c1ccccc1-c1ccccc1)N1CCOCC1    -14.8
 3  COc1ccc(CCNS(=O)(=O)c2ccc(C(=O)NCc3ccco3)cc2)cc1OC     8.04
 4       C/C(=C(\C#N)C(=O)NCCCN1CCOCC1)N(C)C      2.5
 5  CC1=C(C(=O)Nc2ccccc2)C(c2cccs2)C(C#N)=C(SCC#N)N1 (stereo unspecified)     7.71
 6  CCOC(=O)c1cc(NC(=O)c2cccnc2)cc(C(=O)OCC)c1    -7.79
 7  CCN(CC)S(=O)(=O)c1ccc(NC(=O)CN(c2cccc(F)c2)S(C)(=O)=O)cc1    -6.94
 8  CCN(Cc1nc2ccccc2c(=O)[nH]1)Cc1cc(=O)oc2cc(C)c(C)cc12    -2.52
 9         CSc1ccc(S(=O)(=O)Nc2cccc(F)c2)cc1    -8.18
10             CC1(C)CC(=O)C=C(NCc2ccncc2)C1    -1.29
11        O=C(Nc1ccccc1)N(Cc1cccnc1)Cc1ccco1    -3.67

###

Entries and their inhibition
Test: growth inhibitors of wild type E. coli, primary screen, strain BW25113 wild type, absorbance readout (AID 552);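 also: bacteria exposed to compound for 20 hours at 37 °C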
Settings: OD600, at 10 µM, stronger effect = higher value
About 10 (0.05%) of roughly 20,000 compounds were called active. The entries come from a sample that favours actives as a whole.
MEASUREMENT_TYPE: inhibition (%)

> print(dat)
                                    compound  reading
 1         Cc1ccc(SCCN2C(=O)NC(C)(C)C2=O)cc1     4.35
 2  O=C(NCc1ccco1)c1cc(-c2cccnc2)nc2ccc(Cl)cc12    -19.8
 3  COC(=O)CN(c1nc(C)c(Cl)c(OC)n1)S(=O)(=O)c1ccc(C)cc1    -1.76
 4     O=C(CCN1C(=O)c2ccccc2C1=O)NCCN1CCOCC1     0.59
 5  CCCCNC(=O)c1ccccc1NC(=O)c1ccccc1N(C)S(C)(=O)=O      -21
 6        O=C(Nc1nn(Cc2ccccc2F)cc1Br)c1cccs1    -14.1
 7  CC12CCC(C(=O)N3CCN(c4ncccn4)CC3)(c3nc4ccccc4nc31)C2(C)C (configuration not stated)    -25.6
 8  Cc1ccc(S(=O)(=O)NCc2nc3ccccc3c(=O)n2N)cc1    -21.5
 9  Cc1cc(Cl)c(S(=O)(=O)NCCC(=O)O)cc1OCC(N)=O    -0.81
10  CCOc1ccc(Cn2nnc(C(=O)Nc3ccc(OC)cc3OC)c2N)cc1     1.62
11  Cn1c(=O)c2c(ncn2CC(=O)N2CCN(c3ccccc3)CC2)n(C)c1=O     0.27
12    CC(C)n1c(NCc2c[nH]c3ccccc23)nc2ccccc21     18.1
13         O=C(Nc1ccccc1N1CCCCC1)c1cccc(F)c1     0.18
14  COc1ccccc1N1CCN(C(=O)c2cc(-c3ccc(Cl)c(Cl)c3)on2)CC1    -2.37
15           Cc1cc(C(F)(F)F)nn1CC(=O)N1CCCC1     3.35
16  Cc1ccc(-c2noc(-c3ccccc3C(=O)NCC3CCCO3)n2)cc1 (configuration not stated)     8.67
17               Cc1cc(C(=O)NCCCc2ccccc2)no1    -3.97
18  CC(C)c1ccc(N2CC(C(=O)Nc3nccs3)CC2=O)cc1 (configuration not stated)      2.9
19  COc1ccc(-c2cc3ccc(OCc4nn[nH]n4)cc3oc2=O)cc1    -2.44
20  CCOC(=O)COc1ccc(Cl)cc1C1NC(=O)NC(C)=C1C(C)=O (configuration not stated)    -10.9
21  COc1ccc(CSc2nc(N3CCOCC3)c3c(c2C#N)CC(C)(C)OC3)cc1    -19.4
22  CC1Cn2c(nnc2-c2cccs2)S1 (configuration not stated)    -19.2
23  COc1cc(-c2nc(S(=O)(=O)c3ccc(Cl)cc3)c(N(C)C)o2)cc(OC)c1OC    -0.36
24          Cc1cc(=O)n(C)c(=O)n1CCCNc1ccccc1     8.62
25  COc1ccc(S(=O)(=O)N2CCOCC2)cc1C(=O)Nc1nc2ccccc2s1     4.62
26                       CNC(=O)NCCN1CCCC1=O     7.98
27       COc1ccc(OC)c(S(=O)(=O)Nc2ccccc2F)c1    -13.8
28  Cc1noc(C)c1C(=O)NC(C)c1ccc2c(c1)OCO2 (configuration not stated)    -22.5
29            COc1c(C(=O)N2CCCC2)ccc2ccccc12    -8.42
30  Cc1cc(C(=O)Nc2c(C)n(C)n(-c3ccccc3)c2=O)cs1    -12.7
31            C/C(N)=C(\C#N)C(=O)NCCc1ccccn1    -3.41
32  COC(=O)Nc1ccc(S(=O)(=O)N(C)CC(F)(F)C(F)F)cc1     -3.1
33  COC(=O)c1ccc(C2CC(=O)Nc3cc(OC)c(OC)cc32)cc1 (configuration not stated)    -20.6
34  C=CCn1c(SCc2nnc(-c3ccccc3)o2)nnc1C(O)c1ccccc1 (configuration not stated)    -17.5
35  COC(=O)C(C)N(C#N)c1nc(C)nc(C)n1 (configuration not stated)    -24.9
36    COC(=O)c1ccc(Oc2nc(NC(C)C)nc(SC)n2)cc1    -19.1
37                 Cc1noc(C)c1C(=O)Nc1ccccn1    -22.1
38  Cc1cc(C)nc(NC(=O)C(C)N2C(=O)c3ccccc3C2=O)n1 (configuration not stated)    -17.9
39     CC(=O)N1C(=O)C2(Nc3ccccc3N2)c2ccccc21     7.24
40          COc1ccccc1NC1=NC2(CCCC2)N=C(N)N1      5.8
41            O=C(O)Cc1ccc(NC(=O)c2cccs2)cc1    -19.2
42        CCCOc1ccccc1-c1nc(SCCC(=O)O)n[nH]1    -18.4
43  O=C(Cn1nnc(-c2ccc(CN3CCOCC3)cc2)n1)NC1CCCCC1    -1.75
44  Cn1c(=O)[nH]c(=O)c2c1nc(N(CCO)Cc1ccccc1)n2Cc1ccccc1Cl    -2.48
45  O=C(c1ccco1)N1CCN(C(=O)C2CC(c3ccc(F)cc3)=NO2)CC1 (configuration not stated)     9.27
46  CCOC(=O)N1CCN(CC(=O)c2c(C)[nH]c3ccccc23)CC1     8.75
47  O=C(OCC(O)C(O)COC(=O)c1ccccc1)c1ccccc1 (configuration not stated)    -18.9
